Test system: M. tuberculosis H37Rv
experimental.details: Bacterial inhibition assay (resazurin), MIC against M. tuberculosis
Type: cell-based, Mycobacterium tuberculosis
Set-up: unit not given here
condition.context: Table 6 summary
I'd appreciate it if you could supply MIC for TB. H37Rv values for the items below.
Give a plain numeric answer without units written out.

Exercise: Checklist item: MIC for TB. H37Rv tested on M. tuberculosis H37Rv, entry `CCCCCCCCN(CCCCCCCC)c1cccc(C)c1` , value?
Key: 1.5

Exercise: Please provide the recorded MIC for TB. H37Rv for `CCCCCCCCCCN(CCCCCC)CCCCCC` , tested on M. tuberculosis H37Rv.
Key: 1.5

Exercise: Under M. tuberculosis H37Rv: MIC for TB. H37Rv value of `CCCCCCCCN(CCCCCCCC)Cc1ccccc1` ?
Key: 1.5

Exercise: Recorded MIC for TB. H37Rv for CCCCCCCCN(CCCCCCCC)CCCCCCCC [Compound 13, N,N,N-Trioctylammonium Chloride] with M. tuberculosis H37Rv, please?
Key: 0.02

Exercise: Notebook entry, M. tuberculosis H37Rv assay: MIC for TB. H37Rv of `CCCCCCCCN(CCCCCCCC)c1ccc(C)cc1` = ?
Key: 6.25

Exercise: Look up MIC for TB. H37Rv with M. tuberculosis H37Rv for this molecule: `CCCCCCCCN(CCCCCCCC)CCc1cn(-c2ccc3c4c(cccc24)C(=O)N(CC)C3=O)nn1`
Key: 6.25

* * *

Test system: MRSA
Give measured MIC50 for each item. Keep answers brief.
Give just the number in µM; leave the unit off.

Exercise: # get_value(readout='MIC50', item= CCCCCCCCCCN(CCCCCC)CCCCCC [Compound 3, N,N-Dihexyldecan-1-Amine] )
Key: 12.5

Exercise: Any idea what MIC50 was measured for CCCCCCCCN(CCCCCCCC)CCCCCCCC [Compound 13, N,N,N-Trioctylammonium Chloride] ?
Key: 12.5

Exercise: I have this compound here, CCCCCCCCN(CCCCCCCC)c1cccc(C)c1 [Compound 1a, N,N-Dioctyl-3-Methylaniline] , and I need its recorded MIC50.
Key: 12.5

Exercise: So what does the record say about MIC50 for CCCCCCCCN(CCCCCCCC)CCc1cn(-c2ccc3c4c(cccc24)C(=O)N(CC)C3=O)nn1 [Compound 18] ?
Key: 12.5

Exercise: # lookup: MIC50 of CCCCCCCCN(CCCCCCCC)Cc1ccccc1 [Compound 2a, N-Benzyl-N-Octyloctan-1Amine]
Key: 12.5

Exercise: Any idea what its MIC50 is? The compound is CCCCCCCCN(CCCCCCCC)c1ccc(C)cc1 [Compound 1b, N,N-Dioctyl-4-Methylaniline]
Key: 100

* * *

What follows is a record of MIC for MRSA.
Provide only the numeric value, understood in µM.

Exercise: Give the measured MIC of `CCCCCCCCCCN(CCCCCC)CCCCCC` .
Key: 12.5

Exercise: Name the reported MIC value associated with the molecule CCCCCCCCN(CCCCCCCC)CCCCCCCC [Compound 13, N,N,N-Trioctylammonium Chloride]
Key: 12.5

Exercise: Any idea what MIC was measured for `CCCCCCCCN(CCCCCCCC)Cc1ccccc1` ?
Key: 12.5

Exercise: Which MIC reading was recorded for the molecule `CCCCCCCCN(CCCCCCCC)c1cccc(C)c1` ?
Key: 12.5

Exercise: Requested read-out: MIC. Entry: `CCCCCCCCN(CCCCCCCC)c1ccc(C)cc1`
Key: 100

Exercise: Name the recorded MIC for `CCCCCCCCN(CCCCCCCC)CCc1cn(-c2ccc3c4c(cccc24)C(=O)N(CC)C3=O)nn1` .
Key: 12.5

* * *

So I've got a bunch of compounds here, and I need their Minimum toxicity concentration of drug (MTC) HepG2 values.
System: HepG2
Format: cell-based
condition.context: human, 7 days

Exercise: Record lookup: for HepG2, what Minimum toxicity concentration of drug (MTC) HepG2 belongs to `CCCCCCCCCCN(CCCCCC)CCCCCC` ?
Key: >100 ± 1.0 µM

Exercise: For the record `CCCCCCCCN(CCCCCCCC)Cc1ccccc1` , what value of Minimum toxicity concentration of drug (MTC) HepG2 is listed for HepG2?
Key: >100 ± 0.8 µM

Exercise: Which measured Minimum toxicity concentration of drug (MTC) HepG2 belongs to `CCCCCCCCN(CCCCCCCC)c1cccc(C)c1` , tested on HepG2?
Key: >100 ± 3.0 µM

Exercise: Checklist item: Minimum toxicity concentration of drug (MTC) HepG2 tested on HepG2, entry `CCCCCCCCN(CCCCCCCC)CCc1cn(-c2ccc3c4c(cccc24)C(=O)N(CC)C3=O)nn1` , value?
Key: >100 ± 5.0 µM

Exercise: Item `CCCCCCCCN(CCCCCCCC)c1ccc(C)cc1` with HepG2 - Minimum toxicity concentration of drug (MTC) HepG2?
Key: >100 ± 0.9 µM

Exercise: Could you share what Minimum toxicity concentration of drug (MTC) HepG2 was measured for CCCCCCCCN(CCCCCCCC)CCCCCCCC [Compound 13, N,N,N-Trioctylammonium Chloride] , tested on HepG2?
Key: >100 ± 5.2 µM

* * *

Tested on: M. tuberculosis H37Rv
experimental.details: Checkerboard assay with rifampicin against M. tuberculosis
Assay type: cell-based, Mycobacterium tuberculosis
condition.context: Mycobacterium tuberculosis, H37RV; read-out: Compound alone MIC50 for M. tuberculosis
metric: MIC50 (µM)
Write down the numeric answer in µM and omit the unit.

Exercise: Any idea what its MIC50 is? The compound is CCCCCCCCN(CCCCCCCC)CCc1cn(-c2ccc3c4c(cccc24)C(=O)N(CC)C3=O)nn1 [Compound 18]
Key: 6.25

Exercise: # lookup: MIC50 of CCCCCCCCCCN(CCCCCC)CCCCCC [Compound 3, N,N-Dihexyldecan-1-Amine]
Key: 1.5

Exercise: Quick check: MIC50 of CCCCCCCCN(CCCCCCCC)CCCCCCCC [Compound 13, N,N,N-Trioctylammonium Chloride] ?
Key: 0.02

Exercise: Reported MIC50 for CCCCCCCCN(CCCCCCCC)c1ccc(C)cc1 [Compound 1b, N,N-Dioctyl-4-Methylaniline] : what is it?
Key: 6.25

Exercise: Recorded MIC50 for CCCCCCCCN(CCCCCCCC)Cc1ccccc1 [Compound 2a, N-Benzyl-N-Octyloctan-1Amine] , please?
Key: 1.5

Exercise: Entry CCCCCCCCN(CCCCCCCC)c1cccc(C)c1 [Compound 1a, N,N-Dioctyl-3-Methylaniline] has what MIC50?
Key: 1.5

* * *

Tested on: A549
Type: cell-based
condition.context: human, 7 days
I'd appreciate it if you could supply Minimum toxicity concentration of drug (MTC) A549 values for the items below.

Exercise: Consider the molecule shown here: `CCCCCCCCN(CCCCCCCC)Cc1ccccc1` What is its recorded Minimum toxicity concentration of drug (MTC) A549?
Key: >100 ± 1.0 µM

Exercise: Sample CCCCCCCCN(CCCCCCCC)CCCCCCCC [Compound 13, N,N,N-Trioctylammonium Chloride] — what was its Minimum toxicity concentration of drug (MTC) A549?
Key: 50 ± 1.4 µM

Exercise: Any idea what its Minimum toxicity concentration of drug (MTC) A549 is? The molecule is `CCCCCCCCN(CCCCCCCC)c1cccc(C)c1`
Key: >100 ± 4.1 µM

Exercise: For the molecule shown here, `CCCCCCCCN(CCCCCCCC)CCc1cn(-c2ccc3c4c(cccc24)C(=O)N(CC)C3=O)nn1` , give the reported Minimum toxicity concentration of drug (MTC) A549.
Key: >100 ± 6.0 µM

Exercise: Item under review: `CCCCCCCCN(CCCCCCCC)c1ccc(C)cc1` . Reported Minimum toxicity concentration of drug (MTC) A549?
Key: >100 ± 3.8 µM

Exercise: For the molecule shown here, `CCCCCCCCCCN(CCCCCC)CCCCCC` , give the reported Minimum toxicity concentration of drug (MTC) A549.
Key: >100 ± 2.0 µM

* * *

Hi there, I'd appreciate the recorded Minimum toxicity concentration of drug (MTC) THP1 for every entry that follows.
Tested on: THP1
Type: cell-based
condition.context: human, 7 days
State the answer as a number, implicitly in µM.

Exercise: Please look up its Minimum toxicity concentration of drug (MTC) THP1: CCCCCCCCN(CCCCCCCC)c1cccc(C)c1 [Compound 1a, N,N-Dioctyl-3-Methylaniline]
Key: 50

Exercise: Dear colleague, I am looking for the recorded Minimum toxicity concentration of drug (MTC) THP1 of the following molecule: CCCCCCCCN(CCCCCCCC)CCCCCCCC [Compound 13, N,N,N-Trioctylammonium Chloride]
Key: 3.1

Exercise: Requested read-out: Minimum toxicity concentration of drug (MTC) THP1. Entry: CCCCCCCCCCN(CCCCCC)CCCCCC [Compound 3, N,N-Dihexyldecan-1-Amine]
Key: 50

Exercise: Item under review: CCCCCCCCN(CCCCCCCC)Cc1ccccc1 [Compound 2a, N-Benzyl-N-Octyloctan-1Amine] . Reported Minimum toxicity concentration of drug (MTC) THP1?
Key: 6.5

Source of measurements: paper PMC7729195
